Test system: HSV-1 strain 17 YFP-ICP4 in A549
Experiment: HSV-1 infection relative to DMSO (ICP4-YFP per H2B-RFP signal); higher = more viral infection (less antiviral activity), active = hit call of the paper
Details: 10 µM; 48 h; MOI: 0.1
About 15 (0.9%) of roughly 1,700 compounds showed activity. For the sample, actives were picked, then their nearest neighbours and some compounds at random.
Overview of reported HSV-1 infection across a group of molecules:

molecule	HSV-1 infection [%]
Nc1cc(N2CCCCC2)nc(N)[n+]1OS(=O)(=O)[O-] [Minoxidil sulphate]	97.8
CCCCCCCCCCCCCCCCCC(=O)O [Stearic acid]	86.7
O=C(O)c1ccc(-n2nc(-c3ccccc3O)nc2-c2ccccc2O)cc1 [Deferasirox]	79.8
CCOC(=O)N[C@@H]1CC[C@@H]2[C@@H](C1)C[C@H]1C(=O)O[C@H](C)[C@H]1[C@H]2/C=C/c1ccc(-c2cccc(F)c2)cn1 [Vorapaxar]	113
CC(=O)[C@@]1(O)CC[C@H]2[C@@H]3CCC4=CC(=O)CCC4=C3[C@@H](c3ccc(N(C)C)cc3)C[C@@]21C [Ulipristal]	91.8
CC1=NN(c2ccc(C)c(C)c2)C(=O)/C1=N\Nc1cccc(-c2cccc(C(=O)O)c2)c1O [Eltrombopag Olamine]	99
N[C@@H]1CN(c2c(F)cc3c(=O)c(C(=O)O)cn([C@@H]4C[C@@H]4F)c3c2Cl)CC12CC2 [Sitafloxacin Hydrate]	111
CN1CCc2nc(C(=O)N[C@@H]3C[C@@H](C(=O)N(C)C)CC[C@@H]3NC(=O)C(=O)Nc3ccc(Cl)cn3)sc2C1 [Edoxaban]	115
CC1CNc2c(cccc2S(=O)(=O)N[C@@H](CCCNC(=N)N)C(=O)N2CC[C@@H](C)C[C@@H]2C(=O)O)C1 (some centres undefined) [Argatroban Monohydrate]	97.4
CC1=NN(c2ccc(C)c(C)c2)C(=O)/C1=N\Nc1cccc(-c2cccc(C(=O)O)c2)c1O [Eltrombopag]	82.4
O=C1C(CC[S+]([O-])c2ccccc2)C(=O)N(c2ccccc2)N1c1ccccc1 (racemic) [(+/-)-Sulfinpyrazone]	111
N[C@@H](CCC(=O)O)C(=O)[O-].[Na+] [L-Glutamic acid monosodium salt]	84.3
Cc1onc(-c2c(F)cccc2Cl)c1C(=O)N[C@@H]1C(=O)N2[C@@H]1SC(C)(C)[C@@H]2C(=O)O [Flucloxacillin sodium]	114
CC(C)(C)C#Cc1cc(N(C(=O)[C@H]2CC[C@H](C)CC2)[C@H]2CC[C@H](O)CC2)c(C(=O)O)s1 [Lomibuvir (VX-222, VCH-222)]	130

* * *

System: HSV-1 strain 17 YFP-ICP4 in A549
Assay: HSV-1 infection relative to DMSO (ICP4-YFP per H2B-RFP signal); higher = more viral infection (less antiviral activity), active = hit call of the paper
Details: 10 µM; 48 h; MOI: 0.1
Counter-ions that a name gives are not always drawn. About 15 (0.9%) of roughly 1,700 compounds showed activity. This excerpt belongs to a sample that is enriched for actives.
This section presents compounds with their documented HSV-1 infection values.
measure: HSV-1 infection (%)

>>> print(df.to_string())
                                   compound          measure  quantitative_readout
0  CCOc1cc(N)c(Cl)cc1C(=O)NCC1CN(Cc2ccc(F)cc2)CCO1 (stereo not given) [Mosapride Citrate]  HSV-1 infection                  96.7
1  CCN(C(=O)c1c(O)c2c(Cl)cccc2n(C)c1=O)c1ccccc1  HSV-1 infection                   117
2  CCOc1cc(N)c(Cl)cc1C(=O)NCC1CN(Cc2ccc(F)cc2)CCO1 (stereo not given) [Mosapride]  HSV-1 infection                  97.6
3  CN1CCc2nc(C(=O)N[C@@H]3C[C@@H](C(=O)N(C)C)CC[C@@H]3NC(=O)C(=O)Nc3ccc(Cl)cn3)sc2C1 [Edoxaban tosylate Monohydrate]  HSV-1 infection                   124
4  Nc1ccc(S(=O)(=O)Nc2cncc(Cl)n2)cc1 [Sulfalozine sodium]  HSV-1 infection                   105

* * *

Tested on: HSV-1 strain 17 YFP-ICP4 in A549
Assay: HSV-1 infection relative to DMSO (ICP4-YFP per H2B-RFP signal); higher = more viral infection (less antiviral activity), active = hit call of the paper
Settings: 10 µM; 48 h; MOI: 0.1
The whole screen tested about 1,700 compounds, of which about 15 (0.9%) showed activity. The sample holds actives, similar compounds and a random draw of the others, so the mix is not that of the screen.
Attribute: HSV-1 infection
measure: HSV-1 infection (%)

In [3]: df
Out[3]:
                                   molecule  quantitative_readout
0  O=C(NC[C@H]1CN(c2ccc(N3CCOCC3=O)cc2)C(=O)O1)c1ccc(Cl)s1                   110
1  C[C@H](Nc1ncnc2nc[nH]c12)c1cc2cccc(Cl)c2c(=O)n1-c1ccccc1                  69.2
2  COc1cccc(-c2c(C)n(Cc3c(F)cccc3C(F)(F)F)c(=O)n(C[C@H](NCCCC(=O)O)c3ccccc3)c2=O)c1F [Elagolix Sodium]                   109
3  N#C[C@@H]1CCCN1C(=O)CNC12CC3CC(CC(O)(C3)C1)C2                   103

* * *

Tested on: HSV-1 strain 17 YFP-ICP4 in A549
Experiment: HSV-1 infection relative to DMSO (ICP4-YFP per H2B-RFP signal); higher = more viral infection (less antiviral activity), active = hit call of the paper
Settings: 10 µM; 48 h; MOI: 0.1
Where a name gives a salt, the structure may show the parent alone. Out of some 1,700 compounds screened, about 15 (0.9%) showed activity.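 How the source made its calls: active = infection cut by 80% or more with cell growth above 90% in both runs; inactive = the rest.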 Shown is part of a subset that was picked to be rich in actives.
Outcome codes: TRUE for active, FALSE for inactive

compound	target-system	class-label
CC(C)C[C@H](NC(=O)[C@@H](NC(=O)c1cccc(-c2ccccc2)n1)[C@@H](C)O)B(O)O	HSV-1 strain 17 YFP-ICP4 in A549	FALSE
CC1=C(C(=O)OC(C)C)C(c2cccc([N+](=O)[O-])c2)C(C(=O)OC2CN(C(c3ccccc3)c3ccccc3)C2)=C(N)N1 (configuration not stated)	HSV-1 strain 17 YFP-ICP4 in A549	FALSE
CC1CNc2c(cccc2S(=O)(=O)N[C@@H](CCCNC(=N)N)C(=O)N2CC[C@@H](C)C[C@@H]2C(=O)O)C1 (some centres not stated) [Argatroban]	HSV-1 strain 17 YFP-ICP4 in A549	FALSE
Cc1ccccc1C(=O)Nc1ccc(C(=O)N2CCCC(O)c3cc(Cl)ccc32)c(C)c1 (configuration not stated)	HSV-1 strain 17 YFP-ICP4 in A549	FALSE
CN[C@@H]1[C@@H](O)[C@@H](O[C@@H]2[C@@H](O)[C@H](O[C@H]3O[C@H](CN)[C@@H](O)[C@H](O)[C@H]3O)[C@@H](N)C[C@H]2NC(=O)[C@@H](O)CN)OC[C@]1(C)O [Isepamicin Sulphate]	HSV-1 strain 17 YFP-ICP4 in A549	FALSE
O=c1[nH]cnc2c1ncn2[C@@H]1O[C@H](CO)[C@@H](O)[C@H]1O	HSV-1 strain 17 YFP-ICP4 in A549	FALSE
CCCCCCCN(CC)CCCC(O)c1ccc(NS(C)(=O)=O)cc1 (configuration not stated) [Ibutilide Fumarate]	HSV-1 strain 17 YFP-ICP4 in A549	FALSE
CCCCCCC(=O)O[C@H]1CC[C@H]2[C@@H]3CCC4=CC(=O)CC[C@]4(C)[C@H]3CC[C@]12C [Testosterone Enanthate]	HSV-1 strain 17 YFP-ICP4 in A549	FALSE
CO[C@H]1O[C@H](COS(=O)(=O)O)[C@@H](O[C@@H]2O[C@@H](C(=O)O)[C@@H](O[C@H]3O[C@H](COS(=O)(=O)O)[C@@H](O[C@@H]4O[C@H](C(=O)O)[C@@H](O[C@H]5O[C@H](COS(=O)(=O)O)[C@@H](O)[C@H](O)[C@H]5NS(=O)(=O)O)[C@H](O)[C@H]4O)[C@H](OS(=O)(=O)O)[C@H]3NS(=O)(=O)O)[C@H](O)[C@H]2OS(=O)(=O)O)[C@H](O)[C@H]1NS(=O)(=O)O [Fondaparinux Sodium]	HSV-1 strain 17 YFP-ICP4 in A549	FALSE
CCC/N=C1\S/C(=C\c2ccc(OC[C@H](O)CO)c(Cl)c2)C(=O)N1c1ccccc1C	HSV-1 strain 17 YFP-ICP4 in A549	FALSE
CS(=O)(=O)n1cc2c(n1)CN([C@H]1CO[C@H](c3cc(F)ccc3F)[C@@H](N)C1)C2	HSV-1 strain 17 YFP-ICP4 in A549	FALSE
COc1ccc(Cl)c(Nc2nc3ccccc3nc2NS(=O)(=O)c2cccc(NC(=O)C(C)(C)N)c2)c1	HSV-1 strain 17 YFP-ICP4 in A549	FALSE
Cc1cccc(C)c1N(CC(=O)Nc1ccc(-c2ncon2)cc1)C(=O)C1CCS(=O)(=O)CC1	HSV-1 strain 17 YFP-ICP4 in A549	TRUE
O=c1[nH]cnc2c1ncn2[C@H]1CC[C@@H](CO)O1	HSV-1 strain 17 YFP-ICP4 in A549	FALSE
C=C1[C@H](CO)[C@@H](O)C[C@@H]1n1cnc2c(=O)[nH]c(N)nc21	HSV-1 strain 17 YFP-ICP4 in A549	TRUE
NCC(=O)O	HSV-1 strain 17 YFP-ICP4 in A549	FALSE
OC[C@@H](O)CN1CCN(c2ccccc2)CC1	HSV-1 strain 17 YFP-ICP4 in A549	FALSE
